B1: 1ZHC (parent)
chain: HEFRDEISVLKANNPHFDKIFEKHNQLDDDIKTAEQQNASDAEVSHMKKQKLKLKDEIHSMIIEYREK

Variants of: B1
Experiment: folding stability dG (cDNA display proteolysis); higher = more stable
Conditions: PBS, room temperature
Property: folding stability dG (kcal/mol)
Could you give me the number in kcal/mol? Just the number is fine.

Query: Indicate the recorded folding stability dG value for this variant: `L52A`
Response: 1.08

Query: Return reported folding stability dG. Input variant: `E2H`
Response: 0.917

Query: Quote folding stability dG reported for `K68V` please.
Response: 0.338

Query: # return recorded folding stability dG for entry `K53T`
Response: 0.66

Query: Specify folding stability dG for `E6V` and stop.
Response: 1.5

Query: Consider the variant `V44G` and give its recorded folding stability dG.
Response: 0.622

Query: Provide folding stability dG value for the following variant: `L27M`
Response: 0.198

Query: # return recorded folding stability dG for entry `A42V`
Response: 0.662

Query: Specify measured folding stability dG for `H59S` .
Response: 0.624

Query: Answer with the recorded folding stability dG of `K53R` only.
Response: 0.995

Query: Look up and state reported folding stability dG for `K55I`
Response: 1.09
